target: D(3) dopamine receptor (Homo sapiens) (UniProt P35462); experiment: qHTS of D3 Dopamine Receptor Antagonist: qHTS; settings: D3R cells, DiscoveRx beta-arrestin luminescence, antagonist mode; stronger effect = lower value; also: % is scaled to controls: 0 for no effect and ±100 for the full control effect
Sequence (P35462 whole entry, looked up): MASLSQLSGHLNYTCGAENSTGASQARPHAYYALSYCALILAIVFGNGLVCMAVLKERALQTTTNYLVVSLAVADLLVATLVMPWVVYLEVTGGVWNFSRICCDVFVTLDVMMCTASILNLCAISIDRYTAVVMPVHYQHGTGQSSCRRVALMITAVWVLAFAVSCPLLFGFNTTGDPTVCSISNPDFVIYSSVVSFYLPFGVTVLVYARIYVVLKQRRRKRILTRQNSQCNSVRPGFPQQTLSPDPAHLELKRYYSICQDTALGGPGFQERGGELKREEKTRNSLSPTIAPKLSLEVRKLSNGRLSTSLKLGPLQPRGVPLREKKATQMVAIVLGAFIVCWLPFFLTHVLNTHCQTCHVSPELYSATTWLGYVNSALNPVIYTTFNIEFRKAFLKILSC
Screen size: about 360,000 compounds; about 9,100 (2.5%) were called active. About 4% were inconclusive and are not listed. The full list was thinned out, with actives kept by preference.
Each entry falls into one class according to its max response, negative = inhibition; the ranges are bottom (below -10%), middle (-10% to below 10%), top (10% or more)

A selection of reference data follows.
{"molecule": "Nc1ccccc1-c1nc2ccncc2[nH]1", "label_class": "middle"}
{"molecule": "O=C(COC(=O)CCc1c[nH]c2ccccc12)Nc1cccc(Cl)c1", "label_class": "middle"}
{"molecule": "O=C(c1ccco1)N1CCN(CCOc2ccccc2)CC1", "label_class": "bottom"}
{"molecule": "Cc1ccc(C(=O)NC2CCN(C(=O)N3CCOCC3)CC2)cc1", "label_class": "top"}

### Prompt Any idea which band COc1ccc(NC(=O)C2Cc3c(-c4ccc5c(c4)OCO5)ccnc3O2)cn1 (centres undefined) is in?
### Response bottom

### Prompt Any idea which band CCOC(=O)NCc1ccc2c(c1)OCO2 is in?
### Response bottom

---

target: D(3) dopamine receptor (Homo sapiens) (UniProt P35462); assay: qHTS of D3 Dopamine Receptor Antagonist: qHTS; details: D3R cells, DiscoveRx beta-arrestin luminescence, antagonist mode; stronger effect = lower value; also: % is scaled to controls: 0 for no effect and ±100 for the full control effect
The campaign covered roughly 360,000 compounds. About 9,100 (2.5%) were called active. About 4% were inconclusive and are not listed. This is one part of a sample in which actives are shown more often than they occur.
outcome_measure: max response, negative = inhibition (%)
Write the answer as a number in %, unit excluded.

Below, 5 compounds whose answers are already recorded.
{"smiles_string": "CCc1ccc(N(CC)c2ncnc3nc[nH]c23)cc1", "max response, negative = inhibition / %": -11.5}
{"smiles_string": "FC(F)(F)c1ccccc1Cc1c(-c2ccccc2)nc2c3ccccc3ccn12", "max response, negative = inhibition / %": -14.4}
{"smiles_string": "Cc1ccc(NC(=O)Cn2sc3ccccc3c2=O)cc1", "max response, negative = inhibition / %": -0.282}
{"smiles_string": "O=C(COC(=O)c1ccccc1)c1ccc2c(c1)OCCO2", "max response, negative = inhibition / %": -5.24}
{"smiles_string": "COc1ccc(-c2cc(NC(C)=O)c3ncc(-c4cc(OC)c(OC)c(OC)c4)n3c2)cn1", "max response, negative = inhibition / %": 30.1}

### Prompt Write max response, negative = inhibition of Cc1ccc(NC(=O)c2ccc(CSc3ncnc4nc[nH]c34)cc2)c(C)c1 ; system used: D(3) dopamine receptor (Homo sapiens) (UniProt P35462)
### Response -9.41

---

target: D(3) dopamine receptor (Homo sapiens); experiment: qHTS of D3 Dopamine Receptor Antagonist: qHTS; settings: D3R cells, DiscoveRx beta-arrestin luminescence, antagonist mode; also: % is scaled to controls: 0 for no effect and ±100 for the full control effect
Among all 360,000 compounds or so, about 9,100 (2.5%) were called active. Inconclusive results (about 4%) are left out. Rule as the data show it: active = max response below about -50%; inconclusive = no clear call, values can overlap the other calls; inactive = above that. Many of the other results were omitted from the sample, so actives are more common in it than they were.
Just give me one of these, please: 1 (active), 0 (inactive)

A selection of reference data follows.
{"compound": "Cc1cccc(NC(=S)NCCN(C2CCCCC2)C2CCCC2)c1", "measured_target": "D(3) dopamine receptor (Homo sapiens)", "label_class": 1}
{"compound": "CCCNC(=O)C1CC(=O)N(c2ccc(OCc3ccccc3)cc2)C1 (stereo not given)", "measured_target": "D(3) dopamine receptor (Homo sapiens)", "label_class": 0}
{"compound": "CCOc1ccc(-n2c(O)c(/C=N/Nc3nc(C)cc(C)n3)c3ccccc3c2=O)cc1", "measured_target": "D(3) dopamine receptor (Homo sapiens)", "label_class": 1}

### Prompt Each compound tested received a call. Report the one for CN(Cc1cn(Cc2ccc(C(F)(F)F)cc2)nn1)C1CN(Cc2cn(Cc3ccc(C(F)(F)F)cc3)nn2)S(=O)(=O)C1 (stereo not given) .
### Response 0

### Prompt Each compound tested received a call. Report the one for O=C(Nc1ccc2c(c1)OCCO2)C1c2ccccc2OCC(=O)N1Cc1ccccn1 (stereo not given) .
### Response 0

### Prompt Each compound tested received a call. Report the one for CCCOc1ccc(F)cc1-c1cc(C(=O)Nc2ccc(F)c(Cl)c2)[nH]n1 .
### Response 0

### Prompt Each compound tested received a call. Report the one for Cc1cccc(NC(=S)NCc2ccc3[nH]c4c(c3c2)CCCC4)c1 .
### Response 0

### Prompt Each compound tested received a call. Report the one for Cc1cccc(C(=O)NC(=S)N(C)C2CCCCC2)c1 .
### Response 0

### Prompt Each compound tested received a call. Report the one for COc1cccc(-c2cnc3c(NC(C)=O)cc(-c4cccc(NC(C)=O)c4)cn23)c1 .
### Response 0

### Prompt Each compound tested received a call. Report the one for Cc1ccc(-n2c(O)c(C=Nc3ccc(S(=O)(=O)Nc4ncccn4)cc3)c3ccccc3c2=O)cc1C .
### Response 0
